experiment: Hematology assays in cynomolgus monkeys (Example 45); type: in vivo; conditions: day 22
Below, each of the substances is paired with its reported reticulocytes value.

SUBSTANCE	MEASURE_UNIT	reticulocytes
ISIS 416858: MOE gapmer, nucleobases 1275 to 1318 of SEQ ID NO: 1 (Table 8) (antisense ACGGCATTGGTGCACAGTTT; MOE gapmer, wing and gap sizes not given here)	%	1.3
ISIS 417002: MOE gapmer, nucleobases 1275 to 1318 of SEQ ID NO: 1 (Table 8) (antisense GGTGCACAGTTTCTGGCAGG; MOE gapmer, wing and gap sizes not given here)	%	1.2
ISIS 416850: MOE gapmer, nucleobases 1275 to 1318 of SEQ ID NO: 1 (Table 8) (antisense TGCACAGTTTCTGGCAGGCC; MOE gapmer, wing and gap sizes not given here)	%	1.9

* * *

assay: Hematology assays in cynomolgus monkeys (Example 46); type: in vivo; settings: Day 31
Strand notation (5' to 3'): a small letter for the sugar, then the base; units joined by * are phosphorothioate-linked, units joined directly phosphodiester-linked; [ ] holds rarer units or linkages, { } end groups; capitals alone tell only the bases. e = 2'-O-(2-methoxyethyl) (MOE); [5mC] = 5-methylcytosine; d = 2'-deoxy (DNA)
Below, each of the substances is paired with its reported hemoglobin content value.
RECORDED_METRIC: hemoglobin content (g/dL)

SUBSTANCE	MEASURE_UNIT	NUMERIC_READOUT
ISIS 445531: 5-8-5 or 6-8-6 MOE microwalk gapmer (Table 44) (antisense eG*eG*e[5mC]*eA*eT*dT*dG*dG*dT*dG*d[5mC]*dA*d[5mC]*eA*eG*eT*eT*eT)	g/dL	12.3
ISIS 449709: 3-8-3, 4-8-4, 2-10-2, 3-10-3 or 4-10-4 MOE microwalk gapmer (Table 46) (antisense eG*e[5mC]*eA*e[5mC]*dA*dG*dT*dT*dT*d[5mC]*dT*dG*dG*d[5mC]*eA*eG*eG*e[5mC])	g/dL	13.1
ISIS 445522: 5-8-5 or 6-8-6 MOE microwalk gapmer (Table 44) (antisense eG*e[5mC]*eA*e[5mC]*eA*dG*dT*dT*dT*d[5mC]*dT*dG*dG*e[5mC]*eA*eG*eG*e[5mC])	g/dL	12.9
ISIS 449710: 3-8-3, 4-8-4, 2-10-2, 3-10-3 or 4-10-4 MOE microwalk gapmer (Table 46) (antisense e[5mC]*eA*e[5mC]*dA*dG*dT*dT*dT*d[5mC]*dT*dG*dG*d[5mC]*eA*eG*eG)	g/dL	13.1
ISIS 416850: MOE gapmer, nucleobases 1275 to 1318 of SEQ ID NO: 1 (Table 8) (antisense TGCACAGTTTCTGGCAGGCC; MOE gapmer, wing and gap sizes not given here)	g/dL	13.1

* * *

assay: Hematology assays in cynomolgus monkeys (Example 45); type: in vivo; conditions: day 8; escalating dose regimen
RECORDED_METRIC: RBC count

SUBSTANCE	RESULT
ISIS 416850: MOE gapmer, nucleobases 1275 to 1318 of SEQ ID NO: 1 (Table 8) (antisense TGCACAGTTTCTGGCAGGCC; MOE gapmer, wing and gap sizes not given here)	5.4e+06 µL⁻¹
ISIS 416864: MOE gapmer, nucleobases 1275 to 1318 of SEQ ID NO: 1 (Table 8) (antisense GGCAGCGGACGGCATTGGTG; MOE gapmer, wing and gap sizes not given here)	5.7e+06 µL⁻¹
ISIS 416858: MOE gapmer, nucleobases 1275 to 1318 of SEQ ID NO: 1 (Table 8) (antisense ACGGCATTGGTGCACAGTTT; MOE gapmer, wing and gap sizes not given here)	5.6e+06 µL⁻¹
ISIS 416838: MOE gapmer, nucleobases 1018 to 1042 of SEQ ID NO: 1 (Table 6) (antisense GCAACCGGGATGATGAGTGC; MOE gapmer, wing and gap sizes not given here)	5.7e+06 µL⁻¹
ISIS 417002: MOE gapmer, nucleobases 1275 to 1318 of SEQ ID NO: 1 (Table 8) (antisense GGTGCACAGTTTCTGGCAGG; MOE gapmer, wing and gap sizes not given here)	5.6e+06 µL⁻¹

* * *

assay: Hematology assays in cynomolgus monkeys (Example 46); format: in vivo; settings: Day-14
Strand notation (5' to 3'): a small letter for the sugar, then the base; units joined by * are phosphorothioate-linked, units joined directly phosphodiester-linked; [ ] holds rarer units or linkages, { } end groups; capitals alone tell only the bases. e = 2'-O-(2-methoxyethyl) (MOE); [5mC] = 5-methylcytosine; d = 2'-deoxy (DNA)
Below, each of the substances is paired with its reported RBC count value.
RECORDED_METRIC: RBC count (µL⁻¹)

SUBSTANCE	NUMERIC_READOUT
ISIS 449709: 3-8-3, 4-8-4, 2-10-2, 3-10-3 or 4-10-4 MOE microwalk gapmer (Table 46) (antisense eG*e[5mC]*eA*e[5mC]*dA*dG*dT*dT*dT*d[5mC]*dT*dG*dG*d[5mC]*eA*eG*eG*e[5mC])	5.8e+06
ISIS 449710: 3-8-3, 4-8-4, 2-10-2, 3-10-3 or 4-10-4 MOE microwalk gapmer (Table 46) (antisense e[5mC]*eA*e[5mC]*dA*dG*dT*dT*dT*d[5mC]*dT*dG*dG*d[5mC]*eA*eG*eG)	5.6e+06
ISIS 445531: 5-8-5 or 6-8-6 MOE microwalk gapmer (Table 44) (antisense eG*eG*e[5mC]*eA*eT*dT*dG*dG*dT*dG*d[5mC]*dA*d[5mC]*eA*eG*eT*eT*eT)	5.7e+06
ISIS 449707: 3-8-3, 4-8-4, 2-10-2, 3-10-3 or 4-10-4 MOE microwalk gapmer (Table 46) (antisense e[5mC]*eA*e[5mC]*eA*dG*dT*dT*dT*d[5mC]*dT*dG*dG*e[5mC]*eA*eG*eG)	5.7e+06

* * *

experiment: Tolerability in Sprague-Dawley rats: kidney function, urine protein/creatinine (Example 35); conditions: Sprague Dawley rats; After treatment, 50 mg/kg s.c. twice per week for 6 weeks
# note: exactly 9 is not below, so it is 0 (no); use 1 (yes) for Urine protein/creatinine ratio strictly under it

SUBSTANCE	CLASS_ASSIGNMENT
416925 (antisense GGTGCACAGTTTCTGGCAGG; 3-14-3 gapmer chemistry, further chemistry not given here) [compound 416925]	1 (yes)
416838 (antisense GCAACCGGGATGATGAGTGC; 5-10-5 gapmer, further chemistry not given here) [compound 416838]	1 (yes)
416892 (antisense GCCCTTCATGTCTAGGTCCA; 3-14-3 chimeric gapmer, further chemistry not given here) [compound 416892]	0 (no)
417002 (antisense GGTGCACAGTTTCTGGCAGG; 2-13-5 gapmer chemistry, further chemistry not given here) [compound 417002]	1 (yes)

* * *

Below, each of the substances is paired with its reported Half-Life in the liver value.
set-up: species or system CD1 mice; conditions: mouse, in vivo

SUBSTANCE	Half-Life in the liver (days)
416858 (antisense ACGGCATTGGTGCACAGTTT; 5-10-5 gapmer, further chemistry not given here) [compound 416858]	26
416925 (antisense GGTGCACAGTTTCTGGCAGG; 3-14-3 gapmer chemistry, further chemistry not given here) [compound 416925]	12
416864 (antisense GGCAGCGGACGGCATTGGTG; 5-10-5 gapmer, further chemistry not given here) [compound 416864]	13
416825 (antisense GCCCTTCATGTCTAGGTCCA; 5-10-5 gapmer, further chemistry not given here) [compound 416825]	16
417002 (antisense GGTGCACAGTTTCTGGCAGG; 2-13-5 gapmer chemistry, further chemistry not given here) [compound 417002]	11

* * *

test: Hematology assays in cynomolgus monkeys (Example 46); format: in vivo; details: Day 55
Strand notation (5' to 3'): a small letter for the sugar, then the base; units joined by * are phosphorothioate-linked, units joined directly phosphodiester-linked; [ ] holds rarer units or linkages, { } end groups; capitals alone tell only the bases. e = 2'-O-(2-methoxyethyl) (MOE); [5mC] = 5-methylcytosine; d = 2'-deoxy (DNA)

SUBSTANCE	neutrophils
ISIS 449709: 3-8-3, 4-8-4, 2-10-2, 3-10-3 or 4-10-4 MOE microwalk gapmer (Table 46) (antisense eG*e[5mC]*eA*e[5mC]*dA*dG*dT*dT*dT*d[5mC]*dT*dG*dG*d[5mC]*eA*eG*eG*e[5mC])	115%
ISIS 445531: 5-8-5 or 6-8-6 MOE microwalk gapmer (Table 44) (antisense eG*eG*e[5mC]*eA*eT*dT*dG*dG*dT*dG*d[5mC]*dA*d[5mC]*eA*eG*eT*eT*eT)	91%
ISIS 445522: 5-8-5 or 6-8-6 MOE microwalk gapmer (Table 44) (antisense eG*e[5mC]*eA*e[5mC]*eA*dG*dT*dT*dT*d[5mC]*dT*dG*dG*e[5mC]*eA*eG*eG*e[5mC])	125%
ISIS 449708: 3-8-3, 4-8-4, 2-10-2, 3-10-3 or 4-10-4 MOE microwalk gapmer (Table 46) (antisense eA*e[5mC]*eA*dG*dT*dT*dT*d[5mC]*dT*dG*dG*e[5mC]*eA*eG)	75%
ISIS 416858: MOE gapmer, nucleobases 1275 to 1318 of SEQ ID NO: 1 (Table 8) (antisense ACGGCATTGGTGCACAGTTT; MOE gapmer, wing and gap sizes not given here)	73%
